# Test system: Colon 26
# test summary: Phototoxicity against mouse Colon 26 cells assessed as cell survival fraction incubated for 1 hr in dark followed by irradiation with 10 J/cm'-2 light from tunable dye laser at 690 +/- 2 nm measured after 48 hrs by SRB assay
# Format: functional, cell-based
# reported conditions: Colon 26, light or radiation study
assay endpoint: pEC50
When answering, recall that pEC50 equals minus log10 of the concentration in mol/L, and write that number alone.

Let me know recorded pEC50 for CN(C)c1ccc2c(-c3ccccc3)c3cc4ccc(=[N+](C)C)cc4cc3sc2c1.F[P-](F)(F)(F)(F)F , thanks. 7.05

----------
# Test system: Colon 26
# test summary: Dark toxicity against mouse Colon 26 cells assessed as cell survival fraction at 1 uM incubated for 1 hr in dark measured after 48 hrs by SRB assay
# Type: cell-based
# reported conditions: colon 26, 1 µM
assay endpoint: Activity

CN(C)c1ccc2c(-c3ccccc3)c3ccc4cc(=[N+](C)C)ccc4c3[se]c2c1.F[P-](F)(F)(F)(F)F
Non-toxic
CN(C)c1ccc2c(-c3ccccc3)c3cc4ccc(=[N+](C)C)cc4cc3sc2c1.F[P-](F)(F)(F)(F)F
Toxic
CN(C)c1ccc2c(-c3ccccc3)c3ccc4cc(=[N+](C)C)ccc4c3sc2c1.F[P-](F)(F)(F)(F)F
Non-toxic
CN(C)c1ccc2c(-c3ccccc3)c3cc4ccc(=[N+](C)C)cc4cc3[se]c2c1.F[P-](F)(F)(F)(F)F
Toxic

----------
# test summary: Therapeutic index, ratio of LD50 for dark toxicity against mouse Colon 26 cells to EC50 for phototoxicity against mouse Colon 26 cells at 10 Jcm'-2 of irradiation with 690 +/- 2 nm light
# Format: cell-based
# reported conditions: read-out: Ratio LD50/EC50
assay endpoint: selectivity ratio

Let me know recorded selectivity ratio for CN(C)c1ccc2c(-c3ccccc3)c3cc4ccc(=[N+](C)C)cc4cc3sc2c1.F[P-](F)(F)(F)(F)F , thanks. 5.1

----------
# test summary: Therapeutic index, ratio of LD50 for dark toxicity against mouse Colon 26 cells to EC50 for phototoxicity against mouse Colon 26 cells at 10 Jcm'-2 of irradiation with 700 +/- 2 nm light
# Type: cell-based
# reported conditions: read-out: Ratio LD50/EC50
assay endpoint: selectivity ratio
Keep the answer to the number alone.

Let me know recorded selectivity ratio for CN(C)c1ccc2c(-c3ccccc3)c3cc4ccc(=[N+](C)C)cc4cc3[se]c2c1.F[P-](F)(F)(F)(F)F , thanks. 11

----------
# test summary: Drug localization in mitochondria of human HUT78 cells assessed as bright detail similarity scores at 0.2 uM incubated for 15 mins in presence of MTG by flow cytometry
# Assay type: ADME
# reported conditions: hut78, 0.25 h
Quick reference for Drug uptake among some compounds

Answered cases to consult:
CN(C)c1ccc2c(-c3ccccc3)c3ccc4cc(=[N+](C)C)ccc4c3[se]c2c1.F[P-](F)(F)(F)(F)F
2.458
CN(C)c1ccc2c(-c3ccccc3)c3cc4ccc(=[N+](C)C)cc4cc3[se]c2c1.F[P-](F)(F)(F)(F)F
0.683
CN(C)c1ccc2c(-c3ccccc3)c3cc4ccc(=[N+](C)C)cc4cc3sc2c1.F[P-](F)(F)(F)(F)F
2.153

Turning now to a further compound:
Let me know recorded Drug uptake for CN(C)c1ccc2c(-c3ccccc3)c3ccc4cc(=[N+](C)C)ccc4c3sc2c1.F[P-](F)(F)(F)(F)F , thanks. 2.82

Values compiled from ChEMBL document CHEMBL3826903.
